# Test system: MS2 coat protein
# assayNotes: apparent KD of MS2 coat protein; higher = weaker reporter binding
# measurementSetup: Eterna round: R107; input ligand: none
Classify by measured apparent KD of MS2 coat protein: Y if it is equal to or exceeds 100 nM, N if it is smaller.

# example entries with known answers
GCACAUGAGGAUCACCCAUGUAUUACUGAAGGAGCGAGACAGAACUCAGGUAGGUCGCAGACUGCACAAUUGCGGACGACAUGGG [Exclusion Arginine A GF22] :: N
ACAUGAGGAUCACCCAUGUACGAGUCGGAAGGAGCGGCAAUUAAGCCAGGUAGGUCGCCGGCAGAGAGUGUCAUUGUAAGUAUGA [Same State - Arginine A / A] :: N
CAGACUAGGGCGGCCGCCACUGUGGCUACGGUACAUGAGGAUCACCCAUGUUUGUGGUUGAUCUACAGGACCGGGCCCUGGCACG [Orbera] :: Y
UGUAUGUGAUCUGAUACCAGCCUCAUAACUUGAGGAUCACCCAAGUGGAGCGGAAACGCUGGCCCUUGGCAGCAGAUCGCAUACU [TheoBS 2 #AlternativeMS2] :: Y

**Q:** Quick check: does GGGCCCGGGCGCGAGCCCGGGCCCAUUGAUACCAGUGAUAGAGAGCGCCCUUGGCAGCGAAUCCUAACAUGAGGAUCACCCAUGU [5.K] have apparent KD of MS2 coat protein greater than or equal to 100 nM?
**A:** N

* * *

# System: MS2 coat protein
# assayNotes: apparent KD of MS2 coat protein; designed switch direction (-1 OFF switch, 1 ON switch): -1; higher = weaker reporter binding
# measurementSetup: Eterna round: R95; input ligand: microRNA oligo, concentration not stated
A collection of sequences and their measured apparent KD of MS2 coat protein
Unit nM implied. Number only.

GAAAAGGUAGGAUAUACGAAAAGAAAGGGUAGAAAGAAAACACAUGAGGAUCACCCAUGUAGAAGGACCAAAAG [salish99_ex2_r3_095] (puzzle: Exclusion 2) :: 14.6

**Q:** Suppose we examine the sequence CAGGUUAGAGGAUAUACGUAGGUACAGAUCUGUGUGUUUCUACAUGAGGAUCACCCAUGUAGAAGGCUAUCCUG [LRO-Excl2-10] (puzzle: Exclusion 2) ; what apparent KD of MS2 coat protein value has been reported?
**A:** 25.3

**Q:** Item: UAUUAACAAGCUAGAUCCUACAUGAGGAUCACCCAUGUGCUCGUCUUAUAAGGUACUGUGACGAAAGUCACGGUACC [Sensor 3, v1 - 76] (puzzle: Sensor v3, turn-off variant 1)
**A:** 42.4

**Q:** Item: GUAUAUAGUGUGAGGAUAUGCUGGUCCUUGGAUCAGCAGAAGGCACAUGAGGAUCACCCAUGUAGUUUAUUAUG [Mat - Exclusion 4 - JL Mod - D8] (puzzle: Brourd's mod of Exclusion 4)
**A:** 20

**Q:** Item: CAUGGAUGUGAGCCGCAUUACAUGAGGAUCACCCAUGUCAACAAGCUUUUUGCUUGUCUUACGCGGCGACAUCAGAA [Tiquatge] (puzzle: Sensor v3, turn-off variant 1)
**A:** 8.33

* * *

A collection of sequences and their measured apparent KD of MS2 coat protein
# Tested on: MS2 coat protein
# assayNotes: apparent KD of MS2 coat protein; designed switch direction (-1 OFF switch, 1 ON switch): -1; higher = weaker reporter binding
# measurementSetup: Eterna round: R95; input ligand: FMN 200 uM
Unit nM implied. Number only.

Study these solved cases before continuing.
AAGAAACAUGAGGAUCACCCAUGUGAGGAUAUGUAAAAUAAAAUAAAAUAAAGAAUAAACAGAAGGCACAAAGG [Mat - Mod of Hog D24] (puzzle: Exclusion 1) :: 77.9
AAGAAGAUAGGAUAUACGAGGAGAGGAGAGAGAAGGUGAGGACAUGAGGAUCACCCAUGUAGAAGGAUCAGGAA [JR_Exclu2_Sub064] (puzzle: Exclusion 2) :: 81.3
AAGAAACAUGAGGAUCACCCAUGUGAGGAUAUGUAAAAGAAAAUAAAAUAAAGAAGAAACAGAAGGCACAAAGG [Mat - Mod of Hog D20] (puzzle: Exclusion 1) :: 53.4
AGACAGUCAGGAUAUACAUGAGGAUCACCCAUGUUAAGAAGAGAAAGGGCAGGAAGAGGUAGAAGGGACAAGAA [JR_Exclu3_Sub033] (puzzle: Exclusion 3) :: 21.1
GAAAAGGUAGGAUAUACGAAAAAAAAGGGUAGAAAAAAAUCACAUGAGGAUCACCCAUGUAGAAGGACCAAAAG [salish99_ex2_r3_072] (puzzle: Exclusion 2) :: 62.3

**Q:** Identify the measured apparent KD of MS2 coat protein of GAUGGAGAGCAGGAUAUCUUGGGUAAGCAUCAUAGAGAAGGGCUCACAUGAGGAUCACCCAUGUGGUCCUAGAA [Ateedza] (puzzle: Exclusion 6) for MS2 coat protein.
**A:** 30.7

meta.source: the supplement of paper PMC9170038
